tested on: Zika virus NS2B-NS3 protease (unlinked complex); test: Primary screen GU Rhodamine qHTS for Zika virus inhibitors: Unlinked NS2B-NS3 protease assay (AID 1347159); settings: Recombinant ZIKV NS2B-NS3 protease, Rhodamine110 substrate fluorescence; series mostly up to 107 µM; further: nearly all actives have a fitted effect of over 60% in size
Records with an inconclusive call do not appear. The source made the active and inactive calls. The call rests on the fitted dose curve; in most records, active means well fitted inhibition curve with a large enough effect; inconclusive means small, poorly fitted or top-dose-only effect; inactive means no such curve, though single readings can be large or run the other way.
Bench note: report the call from Yes = active, No = inactive

Some solved cases for reference:
1. CC[C@@](C)(Nc1ccnc(-c2c[nH]c3ncccc23)n1)C(=O)NCC(F)(F)F = No
2. C[C@]1(CO)CCC[C@]2(C)C3=C(CCC12)COC3 (stereo not given in full) = No
3. COc1cc2ncnc(Nc3ccc(O)cc3)c2cc1OC = No
4. Cc1cn(C2C=CC(CO)O2)c(=O)[nH]c1=O (stereo not given) = No
5. O=C(NCc1cccc(O)c1)c1cc2cc(F)ccc2[nH]1 = No
6. O=C(Nc1ccc(S(=O)(=O)Nc2nccs2)cc1)C(c1ccccc1)c1ccccc1 = Yes
7. COCCOc1ccc(N2CCN(CCn3ncc4c3nc(N)n3nc(-c5ccco5)nc43)CC2)cc1 = No
8. CC1(C)CC[C@]2(C(=O)O)CC[C@]3(C)C(=CCC4[C@@]5(C)C[C@@H](O)[C@H](O)C(C)(C)C5CC[C@]43C)C2C1 (stereo not given in full) = Yes
9. CC1=CC(=O)C2C(C)(C)CCC[C@]2(C)[C@H]1CO (stereo not given in full) = No

Field: next compound
Input line: Can you look up the reported call for "CCNC(=O)Nc1ccc(-c2nc3c(c(N4CCOC[C@@H]4C)n2)CCN(c2ncccn2)C3)cc1" for me?
Output line: No
